Cited source for all entries: patent EP2790511B1

target: hROMK (hKir1.1) (Homo sapiens, UniProt P48048); construct: expressed in transfected cells; assay: Thallium Flux Assay; format: cell-based; conditions: HEK293 cells stably expressing hROMK (hKir1.1), FLIPR-Tetra; read-out: Thallium Flux IC50
Sequence (P48048 whole entry): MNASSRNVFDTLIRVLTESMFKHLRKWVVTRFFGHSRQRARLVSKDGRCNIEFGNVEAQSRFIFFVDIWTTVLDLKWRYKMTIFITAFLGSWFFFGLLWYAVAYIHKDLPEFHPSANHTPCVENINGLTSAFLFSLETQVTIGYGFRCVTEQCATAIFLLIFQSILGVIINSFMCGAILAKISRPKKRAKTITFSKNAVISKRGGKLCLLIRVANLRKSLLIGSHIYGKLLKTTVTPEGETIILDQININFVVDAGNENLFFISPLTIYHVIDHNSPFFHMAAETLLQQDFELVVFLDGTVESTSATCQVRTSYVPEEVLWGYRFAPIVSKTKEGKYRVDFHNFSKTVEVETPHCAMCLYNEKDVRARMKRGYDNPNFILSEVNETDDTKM
Below, each of the compounds is paired with its reported IC50 value.
RECORDED_ENDPOINT: IC50 (µM)

1. C[C@@H]1Cc2cc([C@@H]3CN4CCN(C(=O)Cc5ccc(-n6cnnn6)nc5)C[C@H]4CN3)ccc2C(=O)O1 :: 0.23
2. COc1c([C@@H]2CN3CCN(C(=O)Cc4ccc(-n5cnnn5)cn4)C[C@H]3CO2)ccc(F)c1C#N :: 0.46
3. C[C@H]1Cc2cc([C@]3(C)CN4CCN(C(=O)Cc5ccc(-n6cnnn6)nc5)C[C@H]4CO3)ccc2C(=O)O1 :: 0.42
4. Cc1nc(-n2cnnn2)ncc1CC(=O)N1CCN2C[C@@H](c3ccc(F)c(C#N)c3Cl)OC[C@H]2C1 :: 0.14
5. COc1c([C@H]2CN3CCN(C(=O)Cc4ccc(-n5cnnn5)nc4)C[C@H]3CO2)ccc(F)c1C#N :: 0.13
6. Cc1c([C@@H]2CN3CCN(C(=O)Cc4ccc(-n5cnnn5)cn4)C[C@H]3CO2)ccc(F)c1C#N :: 0.12
7. N#Cc1c(F)ccc([C@H]2CN3CCN(C(=O)Cc4ccc(-n5cnnn5)cn4)C[C@H]3CO2)c1F :: 0.29
8. COc1cc([C@H]2CN3CCN(C(=O)Cc4ccc(-n5cnnn5)nc4)C[C@H]3CO2)cc(F)c1C#N :: 0.12
9. Cc1c([C@H]2CN3CCN(C(=O)Cc4ccc(-n5cnnn5)nc4)C[C@H]3CS2)ccc2c1COC2=O :: 0.42
10. N#Cc1c(F)ccc([C@@H]2CN3CCN(C(=O)Cc4ccc(-n5cnnn5)cn4)C[C@H]3CO2)c1Cl :: 0.06
11. Cc1c(C#N)cccc1[C@@H]1CN2CCN(C(=O)Cc3cnc(-n4cnnn4)nc3)C[C@@H]2CO1 :: 0.33
12. Cc1c([C@H]2CN3CCN(C(=O)Cc4ccc(-n5cnnn5)cn4)C[C@H]3CN2)ccc(F)c1C#N :: 0.12
13. Cc1c([C@@H]2CN3CCN(C(=O)Cc4ccc(-n5cnnn5)nc4)C[C@H]3CO2)ccc2nonc12 :: 0.25
14. Cc1c([C@@H]2CN3CCN(C(=O)Cc4ccc(-n5cnnn5)nc4)C[C@H]3CCO2)ccc(F)c1C#N (single isomer, unassigned) :: 0.27
15. Cc1c([C@H]2CN3CCN(C(=O)Cc4ccnc(-n5cnnn5)c4)C[C@H]3CO2)ccc(F)c1C#N :: 0.19
16. N#Cc1cc([C@@H]2CN3CCN(C(=O)Cc4cnc(-n5cnnn5)nc4)C[C@@H]3CO2)ccc1F :: 0.3
17. N#Cc1c(F)cc([C@H]2CN3CCN(C(=O)Cc4ccc(-n5cnnn5)nc4)C[C@@H]3CO2)cc1F :: 0.49
18. N#Cc1c(F)cc([C@@H]2CN3CCN(C(=O)Cc4ccc(-n5cnnn5)nc4)C[C@@H]3CO2)cc1F :: 0.17
19. COc1c([C@H]2CN3CCN(C(=O)Cc4cnc(-n5cnnn5)nc4)C[C@H]3CO2)ccc(F)c1C#N :: 0.16
20. COc1cc([C@H]2CN3CCN(C(=O)Cc4ccc(-n5cnnn5)nc4)C[C@H]3CO2)ccc1C#N :: 0.12
21. N#Cc1ccc([C@H]2CN3CCN(C(=O)Cc4ccc(-n5cnnn5)nc4)C[C@H]3CO2)cc1F :: 0.07
22. Cc1c([C@H]2CN3CCN(C(=O)Cc4ccc(-n5cnnn5)nc4)C[C@H]3CN2)ccc2c1COC2=O :: 0.39
23. O=C1OCc2cc([C@@H]3CN4CCN(C(=O)Cc5ccc(-n6cnnn6)cn5)C[C@H]4CO3)ccc21 :: 0.1
24. COc1cc([C@H]2CN3CCN(C(=O)Cc4ccc(-n5cnnn5)nc4)C[C@@H]3CO2)cc(F)c1C#N :: 0.22
25. Cc1c([C@H]2CN3CCN(C(=O)Cc4ccc(-n5cnnn5)nc4)C[C@H]3CO2)csc1C#N :: 0.11
26. Cc1nc(-n2cnnn2)ccc1CC(=O)N1CCN2C[C@@H](c3ccc(F)c(C#N)c3C)OC[C@@H]2C1 :: 0.1
27. Cc1nc(-n2cnnn2)ccc1CC(=O)N1CCN2C[C@@H](c3ccc4c(c3)CCOC4=O)OC[C@@H]2C1 :: 0.16
